Recorded CLZD_CYP2B6_24 by entry
System: CYP2B6
Assay: CLZD_CYP2B6: Change in expression of CYP2B6 (primary human hepatocytes)
Type: cell-based
Details: 24 hr

CLZD_CYP2B6_24 reported for this molecule `C=C(C)[C@H]1Cc2c(ccc3c2O[C@@H]2COc4cc(OC)c(OC)cc4[C@@H]2C3=O)O1` : 5.235

CLZD_CYP2B6_24 reported for this molecule `Cc1nn(-c2cc(NS(C)(=O)=O)c(Cl)cc2Cl)c(=O)n1C(F)F` : 5.329

====

Target: AHR (aryl hydrocarbon receptor) (Homo sapiens, UniProt P35869)
Construct: endogenous in cells; host or cells: HepG2
Sequence (P35869 11-848): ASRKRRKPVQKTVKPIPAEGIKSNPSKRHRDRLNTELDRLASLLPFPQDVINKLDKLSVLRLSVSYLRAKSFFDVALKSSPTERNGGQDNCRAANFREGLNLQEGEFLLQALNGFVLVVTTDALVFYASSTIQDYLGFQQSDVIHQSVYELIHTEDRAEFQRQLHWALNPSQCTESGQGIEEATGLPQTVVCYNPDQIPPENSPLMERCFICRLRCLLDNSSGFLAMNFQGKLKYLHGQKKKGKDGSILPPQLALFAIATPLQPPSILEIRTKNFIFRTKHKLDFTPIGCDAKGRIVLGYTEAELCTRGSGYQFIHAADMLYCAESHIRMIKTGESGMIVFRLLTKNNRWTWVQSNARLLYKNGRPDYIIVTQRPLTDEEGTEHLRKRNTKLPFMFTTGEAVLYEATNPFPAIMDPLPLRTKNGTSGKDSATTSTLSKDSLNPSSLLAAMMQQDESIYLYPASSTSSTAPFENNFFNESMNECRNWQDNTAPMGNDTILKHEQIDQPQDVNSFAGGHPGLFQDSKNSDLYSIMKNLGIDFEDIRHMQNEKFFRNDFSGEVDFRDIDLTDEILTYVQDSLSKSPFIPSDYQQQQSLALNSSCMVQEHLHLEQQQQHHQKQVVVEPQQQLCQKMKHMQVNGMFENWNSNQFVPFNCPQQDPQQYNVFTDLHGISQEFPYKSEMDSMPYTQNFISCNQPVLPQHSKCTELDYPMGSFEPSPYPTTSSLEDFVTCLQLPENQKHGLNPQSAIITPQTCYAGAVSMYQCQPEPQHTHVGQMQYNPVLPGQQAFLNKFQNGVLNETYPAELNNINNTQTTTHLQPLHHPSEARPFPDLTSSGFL
Experiment: ATG_Ahr_CIS: Factorial reporter gene assay (multiplexed transcription reporter, HepG2); further: unit not given here
Format: cell-based
Conditions: HepG2
Recorded ATG_Ahr_CIS by entry
Please give the numeric answer without any surrounding text.

Check out these entries, answers already filled in.
> print(dat)
                                   compound  measured
1  COCC(=O)N(c1c(C)cccc1C)C(C)C(=O)OC (centres unmarked)     4.149
2                   CNC(=S)[S-].O.O.O.[Na+]     4.444
3  COc1cccc(C(=O)NN(C(=O)c2cc(C)cc(C)c2)C(C)(C)C)c1C     4.409
4  CCCN(CCC)c1c([N+](=O)[O-])cc(C(F)(F)F)c(N)c1[N+](=O)[O-]     4.444

ATG_Ahr_CIS reported for this compound `CCCCOC(=O)c1ccccc1C(=O)O` : 4.119
